Test system: MIA PaCa-2
conditions.used: OFD1 knockdown: yes (Tet-on shOFD1, 100 ng/mL doxycycline)
Please use t for IC50 cell viability under 10 µM and f for everything else, ties included.

(Q) Does the reported IC50 cell viability of Cc1cccc(-c2nn3c(c2-c2ccnc4ccc(C(N)=O)cc24)CCC3)n1 [S2230] stay below 10 µM?
(A) t

(Q) Does the reported IC50 cell viability of CC(C)(C)c1cc(NC(=O)Nc2ccc(-c3cn4c(n3)sc3cc(OCCN5CCOCC5)ccc34)cc2)no1 [S1526] stay below 10 µM?
(A) f

(Q) Does the reported IC50 cell viability of CC(=O)O[C@@]12CO[C@@H]1C[C@H](O)[C@@]1(C)C(=O)[C@H](O)C3=C(C)[C@@H](OC(=O)[C@H](O)[C@@H](NC(=O)OC(C)(C)C)c4ccccc4)C[C@@](O)([C@@H](OC(=O)c4ccccc4)[C@H]21)C3(C)C [S1148] stay below 10 µM?
(A) t

(Q) Does the reported IC50 cell viability of COc1cc([C@@H]2c3cc4c(cc3[C@@H](O[C@@H]3O[C@@H]5CO[C@@H](C)O[C@H]5[C@H](O)[C@H]3O)[C@H]3COC(=O)[C@H]23)OCO4)cc(OC)c1O [S1225] stay below 10 µM?
(A) t

(Q) Does the reported IC50 cell viability of CC(C)C(=O)Nc1ccc([N+](=O)[O-])c(C(F)(F)F)c1 [S1908] stay below 10 µM?
(A) t

(Q) Does the reported IC50 cell viability of CC(=O)O[C@H]1C(=O)[C@@]2(C)[C@H]([C@H](OC(=O)c3ccccc3)[C@]3(O)C[C@H](OC(=O)[C@H](O)[C@@H](NC(=O)c4ccccc4)c4ccccc4)C(C)=C1C3(C)C)[C@]1(OC(C)=O)CO[C@@H]1C[C@@H]2O [S1150] stay below 10 µM?
(A) f

(Q) Does the reported IC50 cell viability of CCc1c2c(nc3ccc(OC(=O)N4CCC(N5CCCCC5)CC4)cc13)-c1cc3c(c(=O)n1C2)COC(=O)[C@]3(O)CC [S1198] stay below 10 µM?
(A) f

(Q) Does the reported IC50 cell viability of CN(N=O)C(=O)NC1C(O)OC(CO)C(O)C1O (stereo unspecified) [S1312] stay below 10 µM?
(A) f

(Q) Does the reported IC50 cell viability of C[C@]12CCC(=O)C=C1CC[C@@H]1[C@@H]2[C@@H](O)C[C@@]2(C)[C@H]1CC[C@]2(O)C(=O)CO [S1696] stay below 10 µM?
(A) f

(Q) Does the reported IC50 cell viability of CCC1=C[C@@H]2CN(C1)Cc1c([nH]c3ccccc13)[C@@](C(=O)OC)(c1cc3c(cc1OC)N(C)[C@H]1[C@@](O)(C(=O)OC)[C@H](OC(C)=O)[C@]4(CC)C=CCN5CC[C@]31[C@@H]54)C2 [S4269] stay below 10 µM?
(A) t

(Q) Does the reported IC50 cell viability of CC1(C)O[C@@H]2C[C@H]3[C@@H]4CCC5=CC(=O)C=C[C@]5(C)[C@@]4(F)[C@@H](O)C[C@]3(C)[C@]2(C(=O)CO)O1 [S1628] stay below 10 µM?
(A) f

(Q) Does the reported IC50 cell viability of Cc1nc(=O)c2cc(CN(C)c3ccc(C(=O)N[C@@H](CCC(=O)O)C(=O)O)s3)ccc2[nH]1 [S1192] stay below 10 µM?
(A) f

(Q) Does the reported IC50 cell viability of CS(=O)(=O)N1CCN(Cc2cc3nc(-c4cccc5[nH]ncc45)nc(N4CCOCC4)c3s2)CC1 [S1065] stay below 10 µM?
(A) t

(Q) Does the reported IC50 cell viability of Nc1ncn([C@@H]2O[C@H](CO)[C@@H](O)[C@H]2O)c(=O)n1 [S1782] stay below 10 µM?
(A) f

(Q) Does the reported IC50 cell viability of Cc1ccc(NC(=O)c2ccc(CN3CCN(C)CC3)cc2)cc1Nc1nc(-c2cccnc2)cs1 [S1064] stay below 10 µM?
(A) f

(Q) Does the reported IC50 cell viability of C=CC(=O)N1CCC[C@@H](n2nc(-c3ccc(Oc4ccccc4)cc3)c3c(N)ncnc32)C1 [S2680] stay below 10 µM?
(A) f
